# Test system: basal forebrain cultures
# Protocol Notes: Basal Forebrain ChAT Activity Assay
# Assay type: cell-based, rat
# Measurement Setup: day six, concentration not given, tested between 10 nM and 500 nM, at least 120% of control = active
Measured Parameter: ChAT Activity maximum efficacy % of Control (conc)

Some entries whose results are on file:
- Compound: "COC(=O)C1(O)CC2OC1(C)n1c3ccc(CCI)cc3c3c4c(c5c6cc(CCI)ccc6n2c5c31)C(=O)NC4 (stereo not shown) [Compound 70a]"
  Result: "<120 % of Control"
- Compound: "COC(=O)C1(O)CC2OC1(C)n1c3ccc(CCNCc4ccc(OC)cc4)cc3c3c4c(c5c6cc(CCNCc7ccc(OC)cc7)ccc6n2c5c31)C(=O)NC4 (stereo not shown)"
  Result: "<120 % of Control"
- Compound: "COC(=O)C1(O)CC2OC1(C)n1c3ccc(CCN(C)CCO)cc3c3c4c(c5c6cc(CCN(C)CCO)ccc6n2c5c31)C(=O)NC4 (stereo not shown)"
  Result: "<120 % of Control"
- Compound: "COC(=O)C1(O)CC2OC1(C)n1c3ccc(CCCN4CCOCC4)cc3c3c4c(c5c6cc(CCCN7CCOCC7)ccc6n2c5c31)C(=O)NC4 (stereo not shown)"
  Result: "<120 % of Control"
- Compound: "CCOC(=O)CCSCCc1ccc2c(c1)c1c3c(c4c5cc(CCSCCC(=O)OCC)ccc5n5c4c1n2C1CC(O)(C(=O)OC)C5(C)O1)CNC3=O (stereo not shown)"
  Result: "<120 % of Control"

Please look at CNCCc1ccc2c(c1)c1c3c(c4c5cc(CCNC)ccc5n5c4c1n2C1CC(O)(C(=O)OC)C5(C)O1)CNC3=O (stereo not shown) and tell me its recorded ChAT Activity maximum efficacy % of Control (conc) on basal forebrain cultures.
<120 % of Control

Please look at CCSCC(=O)c1ccc2c(c1)c1c3c(c4c5ccccc5n5c4c1n2C1(C)OC5CC1(O)C(=O)OC)C(=O)NC3 (stereo not shown) and tell me its recorded ChAT Activity maximum efficacy % of Control (conc) on basal forebrain cultures.
<120 % of Control
